Tested on: SEM cells;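 note: ALL cell lines in 384-well plates, five doses spanning 10,000-fold, each plate scaled between vehicle and 100 µmol/L benzalkonium chloride controls, sDSS an adapted area-under-curve metric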
Experiment: selective drug sensitivity score (sDSS, relative to normal bone marrow) (sDSS (score)); higher = more potent and effective on the cell line relative to normal bone marrow cells
Conditions: 72 h
Please go through the items and note down their selective drug sensitivity score.
Give bare numbers.

>>> quantitative_result("FC(F)(F)c1ccc(CNc2ccc(Cc3c[nH]c4ncc(Cl)cc34)cn2)cn1 [Pexidartinib] (top concentration 10000 nM)")
12.6
>>> quantitative_result("CC(O)c1cc(C(=O)N[C@@H](C)Cn2ccc(-c3ccc(C#N)c(Cl)c3)n2)n[nH]1 (stereo partly specified) [ODM-201] (top concentration 2500 nM)")
-0.28
>>> quantitative_result("NC(=O)N1CCC(CC(=O)N2CCC([C@H]3c4ncc(Br)cc4CCc4cc(Cl)cc(Br)c43)CC2)CC1 [Lonafarnib] (top concentration 100000 nM)")
14.1
>>> quantitative_result("CCC1(c2ccc(N)cc2)CCC(=O)NC1=O (stereo unspecified) [Aminoglutethimide] (top concentration 10000 nM)")
0.3
>>> quantitative_result("Cc1ccc(-c2cc(C(F)(F)F)nn2-c2ccc(S(N)(=O)=O)cc2)cc1 [Celecoxib] (top concentration 10000 nM)")
-0.06

Exercise: Return reported selective drug sensitivity score; argument: O=C(O)c1ccc2c(c1)nc(Nc1cccc(Cl)c1)c1ccncc12 [Silmitasertib] (top concentration 10000 nM)
Key: 1.4
